Measured TIMS collisional cross section of individual entries
Assay: TIMS collisional cross section (CCS, N2) of the lipid ion; higher = larger ion cross section
Conditions: sample type: HeLa; ionization mode: positive; one isomer drawn
A number alone suffices; assume Å².

Example entries begin here.
{"compound": "CCCCCCC/C=C\\CCCCCCCCC(=O)OC[C@H](COP(=O)([O-])OCC[N+](C)(C)C)OC(=O)CCCCCCCC/C=C\\CCCCCCC [PC 18:1_18:1] (ion (formula + adduct): [C44H84NO8P+H] 1+)", "TIMS collisional cross section / Å²": 292.9}
{"compound": "CCCCC/C=C\\C/C=C\\C/C=C\\C/C=C\\CCCC(=O)O[C@H](COC(=O)CCCCCCCCCCCCCCCC)COP(=O)(O)OCCN [PE 17:0_20:4@] (ion (formula + adduct): [C42H76NO8P+H] 1+)", "TIMS collisional cross section / Å²": 280.4}
{"compound": "CCCCCCCC/C=C\\CCCCCCCCCCCC(=O)OC[C@@H](COC(=O)CCCCCCC/C=C\\CCCCCCCC)OC(=O)CCCCCCC/C=C\\CCCCCCCC [TG 18:1_18:1_22:1] (ion (formula + adduct): [C61H112O6+NH4] 1+)", "TIMS collisional cross section / Å²": 337.8}
{"compound": "CCCCCCC/C=C\\CCCCCCCC(=O)O[C@@H](COC(=O)CCCCCCC/C=C\\CCCCCCCC)COC(=O)CCCCCCCCCCCCCCCC [TG 17:0_17:1_18:1] (ion (formula + adduct): [C55H102O6+NH4] 1+)", "TIMS collisional cross section / Å²": 322.1}
{"compound": "CCCCCCCC/C=C\\CCCCCCCCCCCC(=O)O[C@@H](CO)COC(=O)CCCCCCCCCCCCCCC [DG 16:0_22:1_0:0] (ion (formula + adduct): [C41H78O5+NH4] 1+)", "TIMS collisional cross section / Å²": 276.3}
{"compound": "CC/C=C\\C/C=C\\C/C=C\\C/C=C\\C/C=C\\C/C=C\\CCC(=O)O[C@@H](CO)COC(=O)CCCCCCC/C=C\\CCCCCCCC [DG 18:1_22:6_0:0] (ion (formula + adduct): [C43H70O5+NH4] 1+)", "TIMS collisional cross section / Å²": 270}

Fill in: TIMS collisional cross section of CCCCC/C=C\C/C=C\CCCCCCCC(=O)OC[C@@H](COC(=O)CCCCCCC/C=C\CCCCCCC)OC(=O)CCCCCCC/C=C\CCCCCCCC [TG 17:1_18:1_18:2] (ion (formula + adduct): [C56H100O6+NH4] 1+) is ___
320.8

Fill in: TIMS collisional cross section of CCCCC/C=C\C/C=C\C/C=C\C/C=C\CCCCCC(=O)O[C@H](COC(=O)CCCCCCCCCCCCCCC)COP(=O)([O-])OCC[N+](C)(C)C [PC 16:0@_22:4] (ion (formula + adduct): [C46H84NO8P+H] 1+) is ___
294.9

Fill in: TIMS collisional cross section of CCCCCC/C=C\CCCCCCCC(=O)O[C@H](COC(=O)CCCCCCCCCCCCC)COC(=O)CCCCCCCCCCCCCCCC [TG 14:0_16:1_17:0] (ion (formula + adduct): [C50H94O6+NH4] 1+) is ___
309.6

Fill in: TIMS collisional cross section of CCCCCCCC/C=C\CCCCCCCC(=O)O[C@H](CO/C=C\CCCCCCCCCCCCCC)COP(=O)(O)OCCN [PE P- 16:0@_18:1] (ion (formula + adduct): [C39H76NO7P+H] 1+) is ___
274
